Reference for the values: ChEMBL document CHEMBL1159230

# experimental.details: Therapeutic index, ratio of IC50 for human H9 cells to EC50 for HIV1 3B
# Assay type: cell-based
# protocol.conditions: H9 cells, read-out: Ratio IC50/EC50
Recorded selectivity ratio for the following compounds

compound	qualifier.sign	selectivity ratio
O=c1ccn([C@@H]2O[C@H](CO)[C@@H](O)[C@H]2O)c(=O)[nH]1	>	10
O=C(O[C@H](Cc1ccc(O)c(O)c1)C(=O)[O-])C1=Cc2cc(O)c(O[C@@H]3O[C@H](CO)[C@@H](O)[C@H](O)[C@H]3O)cc2[C@@H](c2ccc(O)c(O)c2)C1C(=O)O[C@H](Cc1ccc(O)c(O)c1)C(=O)[O-].[K+].[Na+] (some centres not stated)	=	2

###

The reader will find reported Ratio IC50/EC50 values listed item by item below.
# experimental.details: Therapeutic index, ratio of IC50 for human H9 cells to EC50 for HIV1 3B
# Format: cell-based
# protocol.conditions: h9
readout.label: Ratio IC50/EC50

compound	value.measured
O=C(O[C@H](Cc1ccc(O)c(O)c1)C(=O)[O-])C1=Cc2cc(O)c(O)cc2[C@@H](c2ccc(O)c(O)c2)C1C(=O)O[C@H](Cc1ccc(O)c(O)c1)C(=O)[O-].[K+].[K+] (stereo partly specified)	3.1
O=C(O[C@H](Cc1ccc(O)c(O)c1)C(=O)O)C1=Cc2cc(O)c(O)cc2[C@@H](c2ccc(O)c(O)c2)C1C(=O)O[C@H](Cc1ccc(O)c(O)c1)C(=O)O (stereo partly specified)	3.3
O=C(O[C@H](Cc1ccc(O)c(O)c1)C(=O)[O-])C1=Cc2cc(O)c(O)cc2[C@@H](c2ccc(O)c(O)c2)C1C(=O)O[C@H](Cc1ccc(O)c(O)c1)C(=O)[O-].[Na+].[Na+] (stereo partly specified)	19.6
O=C(O[C@H](Cc1ccc(O)c(O)c1)C(=O)[O-])C1=Cc2cc(O)c(O)cc2[C@@H](c2ccc(O)c(O)c2)C1C(=O)O[C@H](Cc1ccc(O)c(O)c1)C(=O)O.[K+] (stereo partly specified)	12.5
O=C(O[C@H](Cc1ccc(O)c(O)c1)C(=O)O)C1=Cc2cc(O)c(O)cc2[C@H](c2ccc(O)c(O)c2)[C@H]1C(=O)O[C@H](Cc1ccc(O)c(O)c1)C(=O)O	3.5
O=C(O[C@H](Cc1ccc(O)c(O)c1)C(=O)[O-])C1=Cc2cc(O)c(O)cc2[C@H](c2ccc(O)c(O)c2)[C@H]1C(=O)O[C@H](Cc1ccc(O)c(O)c1)C(=O)O.[K+]	33.3
